From: patent US12624044B2

Listing of entries alongside the reported DC50.
- STUDY SYSTEM: SMARCA2 (Homo sapiens)
- Sequence (P51531 whole entry): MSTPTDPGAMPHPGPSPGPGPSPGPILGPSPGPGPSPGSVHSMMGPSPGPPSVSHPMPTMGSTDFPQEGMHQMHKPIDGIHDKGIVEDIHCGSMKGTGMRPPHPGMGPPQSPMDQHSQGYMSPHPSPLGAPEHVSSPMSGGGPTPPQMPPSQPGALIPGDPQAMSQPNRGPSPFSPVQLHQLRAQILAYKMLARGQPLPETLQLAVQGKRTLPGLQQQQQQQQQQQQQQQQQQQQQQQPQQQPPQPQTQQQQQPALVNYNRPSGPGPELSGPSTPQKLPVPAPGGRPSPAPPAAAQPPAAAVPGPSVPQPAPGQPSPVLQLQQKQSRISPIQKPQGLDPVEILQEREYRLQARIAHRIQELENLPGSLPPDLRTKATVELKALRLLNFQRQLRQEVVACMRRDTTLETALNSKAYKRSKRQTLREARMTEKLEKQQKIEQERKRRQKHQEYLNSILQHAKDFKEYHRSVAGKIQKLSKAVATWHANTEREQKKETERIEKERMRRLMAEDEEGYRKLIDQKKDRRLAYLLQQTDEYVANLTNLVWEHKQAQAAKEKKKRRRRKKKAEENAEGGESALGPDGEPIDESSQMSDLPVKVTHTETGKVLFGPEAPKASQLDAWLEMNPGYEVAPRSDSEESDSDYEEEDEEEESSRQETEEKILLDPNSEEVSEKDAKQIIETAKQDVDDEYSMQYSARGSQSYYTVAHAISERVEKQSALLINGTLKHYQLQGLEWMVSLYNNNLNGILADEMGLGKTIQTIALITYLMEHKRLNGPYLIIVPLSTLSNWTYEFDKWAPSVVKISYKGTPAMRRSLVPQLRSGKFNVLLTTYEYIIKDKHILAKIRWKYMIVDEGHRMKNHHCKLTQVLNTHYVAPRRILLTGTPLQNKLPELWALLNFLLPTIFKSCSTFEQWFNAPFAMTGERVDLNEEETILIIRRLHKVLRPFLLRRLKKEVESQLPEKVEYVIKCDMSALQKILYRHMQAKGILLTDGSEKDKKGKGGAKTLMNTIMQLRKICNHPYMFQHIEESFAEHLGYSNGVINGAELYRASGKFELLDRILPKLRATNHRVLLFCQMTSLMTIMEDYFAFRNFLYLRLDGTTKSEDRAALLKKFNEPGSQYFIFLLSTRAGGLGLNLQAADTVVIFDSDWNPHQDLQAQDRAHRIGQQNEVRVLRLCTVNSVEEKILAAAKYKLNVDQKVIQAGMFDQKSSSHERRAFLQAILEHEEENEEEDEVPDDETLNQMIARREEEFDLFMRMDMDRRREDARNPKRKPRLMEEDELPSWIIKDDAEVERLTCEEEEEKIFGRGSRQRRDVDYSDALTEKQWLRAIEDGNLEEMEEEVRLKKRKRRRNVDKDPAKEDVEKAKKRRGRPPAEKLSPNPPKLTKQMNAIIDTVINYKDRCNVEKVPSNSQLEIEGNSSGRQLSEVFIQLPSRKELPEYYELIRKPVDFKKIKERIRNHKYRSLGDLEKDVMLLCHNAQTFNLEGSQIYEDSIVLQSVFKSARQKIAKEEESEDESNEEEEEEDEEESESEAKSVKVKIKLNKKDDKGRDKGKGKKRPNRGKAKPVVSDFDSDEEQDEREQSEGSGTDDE
- TEST DETAILS: MSD SMARCA2 degradation in NCI-H1299 cell line (24 h)
- Assay type: cell-based
- Parameters: HC: NCI-H1299 cells treated with DMSO; host or cells: NCI-H1299
- RECORDED CONDITIONS: NCI-H1299 cells, read-out: SMARCA2 MSD H1299 degradation 24 h: External Abs-DC50

These recorded examples may help you get a feel for the data.
# MOLECULE, STUDY SYSTEM, DC50
records = [
    ("CC(C)(CCOCCCc1cccc2c1oc(=O)n2C1CCC(=O)NC1=O)NCc1ccc(N2CCN(c3cc(-c4ccccc4O)nnc3N)CC2)cc1 (stereo not drawn)", "SMARCA2 (Homo sapiens)", "> 1000 nM"),
    ("Cn1c(=O)n(C2CCC(=O)NC2=O)c2cccc(CCCCCCCOc3cccc(CN4CCN(c5cc(-c6ccccc6O)nnc5N)CC4)c3)c21 (stereo not drawn)", "SMARCA2 (Homo sapiens)", "> 1000 nM"),
    ("Cn1c(=O)n(C2CCC(=O)NC2=O)c2cccc(CCCCCCCOc3ccc(CN4CCN(c5cc(-c6ccccc6O)nnc5N)CC4)cc3)c21 (stereo not drawn)", "SMARCA2 (Homo sapiens)", "> 1000 nM"),
]

INPUT: Request the reported DC50 associated with Cn1c(=O)n(C2CCC(=O)NC2=O)c2ccc(CCCCCOc3ccc(CN4CCN(c5cc(-c6ccccc6O)nnc5N)CC4)cc3)cc21 (stereo not drawn)
OUTPUT: > 1000 nM

INPUT: Another: Cn1c(=O)n(C2CCC(=O)NC2=O)c2ccc(CCCCCCc3cn(Cc4cccc(N5C[C@H]6C[C@@H]5CN6/C=C/C(=O)c5ccccc5O)n4)nn3)cc21 (stereo partly drawn)
OUTPUT: > 1000 nM

INPUT: Another: `Cc1ncsc1-c1ccc(CNC(=O)[C@@H]2C[C@@H](O)CN2C(=O)[C@@H](NC(=O)CN(C)CC#Cc2cnc(N3C4CCC3CN(c3cc(-c5ccccc5O)nnc3N)C4)nc2)C(C)(C)C)cc1`
OUTPUT: 100 to 500 nM
